Value source: ChEMBL document CHEMBL3808342

Assay: Fraction unbound in human plasma
Format: ADME, cell-free
QUANTITY_MEASURED: Fu
Answers are plain numbers.

# annotated cases, reported Fu shown
Cc1ccc(OC2CCN(c3ncnc4ccc(F)cc34)CC2)cn1 0.16
Cc1sc2ncnc(N3CCC(C(=O)N4CC[C@H](F)C4)CC3)c2c1C 0.05

// moving on: another record for Fu
Name the recorded Fu for "Cc1sc2ncnc(N3CCC(C(=O)N4CCCC4)CC3)c2c1C" . 0.06

---

Give EC50 for every item shown.
Biological target: Muscarinic acetylcholine receptor M4 (Rattus norvegicus, UniProt P08485)
Sequence (P08485 whole entry): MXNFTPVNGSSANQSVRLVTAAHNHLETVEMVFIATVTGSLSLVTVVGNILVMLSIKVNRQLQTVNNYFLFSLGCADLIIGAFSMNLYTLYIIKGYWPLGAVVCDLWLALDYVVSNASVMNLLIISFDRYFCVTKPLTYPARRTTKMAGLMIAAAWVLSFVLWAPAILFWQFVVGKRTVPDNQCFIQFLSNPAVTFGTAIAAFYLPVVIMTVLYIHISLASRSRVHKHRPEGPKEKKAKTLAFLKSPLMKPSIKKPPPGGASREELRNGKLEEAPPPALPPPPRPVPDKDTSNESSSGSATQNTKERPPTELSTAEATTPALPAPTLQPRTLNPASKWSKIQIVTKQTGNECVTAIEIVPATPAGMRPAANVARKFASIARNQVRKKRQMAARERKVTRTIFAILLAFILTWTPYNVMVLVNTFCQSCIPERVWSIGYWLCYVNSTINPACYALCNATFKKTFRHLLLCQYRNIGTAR
Assay: Positive allosteric modulation of rat M4 receptor expressed in CHO cells coexpressing Gqi5 by calcium mobilization assay
Lab note: write values as number then unit, every time.

Cc1ccc(OC2CCN(c3ncnc4ccc(F)cc34)CC2)cn1 950 nM

Next up:
For the compound shown here, "Cc1sc2ncnc(N3CCC(C(=O)Nc4ccc(S(N)(=O)=O)cc4)CC3)c2c1C" , give the reported EC50. 160 nM
